Origin of measurements: patent US7276531B2

target: h-EP4 (Homo sapiens, UniProt P35408)
Sequence (P35408 whole entry): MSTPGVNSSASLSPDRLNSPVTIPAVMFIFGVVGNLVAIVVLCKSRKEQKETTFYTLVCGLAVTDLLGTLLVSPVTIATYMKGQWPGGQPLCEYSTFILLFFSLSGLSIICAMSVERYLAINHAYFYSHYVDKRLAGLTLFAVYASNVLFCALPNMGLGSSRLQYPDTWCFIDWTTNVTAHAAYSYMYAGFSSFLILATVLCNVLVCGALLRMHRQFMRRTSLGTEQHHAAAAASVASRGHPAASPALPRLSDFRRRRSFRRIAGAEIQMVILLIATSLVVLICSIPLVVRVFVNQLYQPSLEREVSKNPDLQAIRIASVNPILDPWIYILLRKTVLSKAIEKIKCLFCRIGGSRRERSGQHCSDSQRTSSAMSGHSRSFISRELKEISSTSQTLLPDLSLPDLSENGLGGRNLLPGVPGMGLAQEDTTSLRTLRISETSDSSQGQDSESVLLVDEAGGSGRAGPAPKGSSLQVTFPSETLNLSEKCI
PROPERTY MEASURED: Ki (nM)
Lab book: enter the figure in nM, no units written.

Solved entries:
| COMPOUND | ENDPOINT UNIT | Ki |
| --- | --- | --- |
| CCCC/C(C)=C/C=C\[C@H]1CCC(=O)N1CCCc1ccc(C(=O)O)s1 (single isomer, unassigned) [Example 19] | nM | 6 |
| CC(C)=CCC/C(C)=C/C=C\[C@H]1CCC(=O)N1CCc1ccc(C(=O)O)cc1 [Example 11] | nM | 45 |

Let me know recorded Ki for CCCC/C=C/C=C\[C@H]1CCC(=O)N1CCc1ccc(C(=O)O)cc1 [Example 1] , thanks. 25
